target: human CD40 on cells (human, UniProt P25942 21-277); assay: cell-based or functional assay
Sequence (P25942 21-277): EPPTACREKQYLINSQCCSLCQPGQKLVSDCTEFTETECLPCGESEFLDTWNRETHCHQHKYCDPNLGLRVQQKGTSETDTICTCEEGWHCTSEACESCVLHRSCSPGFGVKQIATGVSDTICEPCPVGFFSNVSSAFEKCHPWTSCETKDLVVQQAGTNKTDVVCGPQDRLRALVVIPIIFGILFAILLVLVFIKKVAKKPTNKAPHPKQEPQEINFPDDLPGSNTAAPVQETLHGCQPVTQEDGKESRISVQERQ
Property: EC50 of CD80 up-regulation on monocyte-derived dendritic cells (FACS); scope: individual binders
Give the quantity in µg/mL, number only.

See these solved cases before continuing.
Antibody clone C4 (antibody, human IgG1, lambda, V domains shown, Same VL changes as A4; VH carries S63T; also called C4 ANTI-CD40 ANTIBODY) VH: EVQLLESGGGLVQPGGSLRLSCAASGFTFSTYGMHWVRQAPGKGLEWLSYISGGSSYIFYADTVRGRFTISRDNSENALYLQMNSLRAEDTAVYYCARILRGGSGMDLWGQGTLVTVSS VL: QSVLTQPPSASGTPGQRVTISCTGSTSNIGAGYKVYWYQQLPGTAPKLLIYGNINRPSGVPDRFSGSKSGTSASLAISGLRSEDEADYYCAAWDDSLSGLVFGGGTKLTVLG ... 0.031
Antibody clone A4 (antibody, human IgG1, lambda, V domains shown, Tested as purified antibody; full chains are assembled here from VH/VL plus these; also called A4 ANTI-CD40 ANTIBODY) VH: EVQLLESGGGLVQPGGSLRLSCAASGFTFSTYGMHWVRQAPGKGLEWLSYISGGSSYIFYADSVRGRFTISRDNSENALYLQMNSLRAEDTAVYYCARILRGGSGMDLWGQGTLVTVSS VL: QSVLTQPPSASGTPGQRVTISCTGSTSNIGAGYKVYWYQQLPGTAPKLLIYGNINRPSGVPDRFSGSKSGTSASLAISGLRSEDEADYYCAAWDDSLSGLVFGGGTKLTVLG ... 0.17
Antibody B44 (antibody, V domains shown, Parent agonistic anti-CD40 antibody from the n-CoDeR library; Run alongside the IgG clones as 'B44 antibody' and detected with anti-human Ig on RAMOS cells; also called B44 antibody; original anti-CD40 antibody) VH: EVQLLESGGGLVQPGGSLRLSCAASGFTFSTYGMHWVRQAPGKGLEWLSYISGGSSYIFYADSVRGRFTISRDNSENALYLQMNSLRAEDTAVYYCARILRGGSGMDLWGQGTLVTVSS VL: QSVLTQPPSASGTPGQRVTISCTGSSSNIGAGYDVYWYQQLPGTAPKLLIYGNINRPSGVPDRFSGSKSGTSASLAISGLRSEDEADYYCAAWDDSLSGLVFGGGTKLTVLG ... 0.25

The record that follows has no EC50 of CD80 up-regulation on monocyte-derived dendritic cells (FACS) shown yet.
Exercise: Reported EC50 of CD80 up-regulation on monocyte-derived dendritic cells (FACS), binder Antibody clone H11 (antibody, human IgG1, lambda, V domains shown, also called H11 ANTI-CD40 ANTIBODY) VH: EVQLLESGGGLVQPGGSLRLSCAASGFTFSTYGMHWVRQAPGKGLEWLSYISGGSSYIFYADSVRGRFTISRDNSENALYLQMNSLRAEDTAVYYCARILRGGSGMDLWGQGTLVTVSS VL: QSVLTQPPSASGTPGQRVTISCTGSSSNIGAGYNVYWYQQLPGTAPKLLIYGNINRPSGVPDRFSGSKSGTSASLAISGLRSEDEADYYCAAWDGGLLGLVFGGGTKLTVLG : ____
Key: 0.14

# credit: patent US20140348836A1
